Test system: 126254-015-R-J1-PDC complex spheroid growth, % test/control
experiment summary: Anticancer human tumor 126254-015-R-J1-PDC patient-derived soft tissue sarcoma cell line growth inhibition [Asc]
assay context: second compound 0.1 µM; first compound 10 µM; active compounds read low
property label: viability, T/C (%)
Use % as the unit, but write only the number.

compound	tested on	unit label	viability, T/C
O=C(c1cc(Cc2n[nH]c(=O)c3ccccc23)ccc1F)N1CCN(C(=O)C2CC2)CC1 + CNC(C)C(=O)NC1CN(S(=O)(=O)c2cccc(S(=O)(=O)N3CCC4CCC(C(=O)NC(c5ccccc5)c5ccccc5)N4C(=O)C(NC(=O)C(C)NC)C3)c2)CCC2CCC(C(=O)NC(c3ccccc3)c3ccccc3)N2C1=O	126254-015-R-J1-PDC complex spheroid growth, % test/control	%	27.4
O=C(c1cc(Cc2n[nH]c(=O)c3ccccc23)ccc1F)N1CCN(C(=O)C2CC2)CC1 + Cc1c(S(C)(=O)=O)c(-c2cc(F)cc(N3CCN(c4ccc(NS(=O)(=O)c5ccc(NC(CCN6CCC(C(=O)OCCCP(=O)(O)O)CC6)CSc6ccccc6)c(S(=O)(=O)C(F)(F)F)c5)cc4)CC3)c2)c(-c2ccc(Cl)cc2)n1C(C)C	126254-015-R-J1-PDC complex spheroid growth, % test/control	%	56.2

// field: viability, T/C; key: C=C(F)C(=O)N1CCN(c2nc(OCC3CCCN3C)nc3c2CCN(c2cccc4cccc(Cl)c24)C3)CC1CC#N (stereo not drawn) + CNC(C)C(=O)NC1CN(S(=O)(=O)c2cccc(S(=O)(=O)N3CCC4CCC(C(=O)NC(c5ccccc5)c5ccccc5)N4C(=O)C(NC(=O)C(C)NC)C3)c2)CCC2CCC(C(=O)NC(c3ccccc3)c3ccccc3)N2C1=O ; value = 0.14

---

System: 126254-015-R-J1-PDC complex spheroid growth, % test/control
experiment summary: Anticancer human tumor 126254-015-R-J1-PDC cell line growth inhibition [Asc];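 also: spheroids exposed to compound for seven days; 100% = DMSO vehicle control wells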
assay context: second compound 0.1 µM; first compound 0.1 µM; active compounds read low
The following compounds are shown together with reported viability, T/C values.
Provide only the numeric value, understood in %.

Please review the following examples before continuing.
compound	tested on	quantitative readout
C#Cc1c(F)ccc2cc(O)cc(-c3ncc4c(N5CC6CCC(C5)N6)nc(OCC56CCCN5CC(F)C6)nc4c3F)c12 (centres undefined) + Cc1c(S(C)(=O)=O)c(-c2cc(F)cc(N3CCN(c4ccc(NS(=O)(=O)c5ccc(NC(CCN6CCC(C(=O)OCCCP(=O)(O)O)CC6)CSc6ccccc6)c(S(=O)(=O)C(F)(F)F)c5)cc4)CC3)c2)c(-c2ccc(Cl)cc2)n1C(C)C	126254-015-R-J1-PDC complex spheroid growth, % test/control	92.8
O=C(c1ccc(F)c(F)c1Nc1ccc(I)cc1F)N1CC(O)([C@@H]2CCCCN2)C1 + CNC(C)C(=O)NC1CN(S(=O)(=O)c2cccc(S(=O)(=O)N3CCC4CCC(C(=O)NC(c5ccccc5)c5ccccc5)N4C(=O)C(NC(=O)C(C)NC)C3)c2)CCC2CCC(C(=O)NC(c3ccccc3)c3ccccc3)N2C1=O	126254-015-R-J1-PDC complex spheroid growth, % test/control	59.6
NC1CCC(NC2CC2c2ccccc2)CC1 (centres undefined) + Cc1c(S(C)(=O)=O)c(-c2cc(F)cc(N3CCN(c4ccc(NS(=O)(=O)c5ccc(NC(CCN6CCC(C(=O)OCCCP(=O)(O)O)CC6)CSc6ccccc6)c(S(=O)(=O)C(F)(F)F)c5)cc4)CC3)c2)c(-c2ccc(Cl)cc2)n1C(C)C	126254-015-R-J1-PDC complex spheroid growth, % test/control	77.6

Could you now consider this next compound?
The measured viability, T/C associated with C=CC(=O)N1CCN(c2nc(=O)n(-c3c(C)ccnc3C(C)C)c3nc(-c4c(O)cccc4F)c(F)cc23)C(C)C1 (centres undefined) + Cc1c(S(C)(=O)=O)c(-c2cc(F)cc(N3CCN(c4ccc(NS(=O)(=O)c5ccc(NC(CCN6CCC(C(=O)OCCCP(=O)(O)O)CC6)CSc6ccccc6)c(S(=O)(=O)C(F)(F)F)c5)cc4)CC3)c2)c(-c2ccc(Cl)cc2)n1C(C)C reads 89.4
